assay: gradient 5% acetonitrile 3 min, to 50% in 2 min, to 85% in 15 min, held 3 min, 100 µL/min; details: column: Zorbax Extend-C18 2.1 x 50 mm; eluents: water / acetonitrile, 0.1% formic acid
Metric name: RP-LC retention time (s)

> print(dat)
                                    compound           metric.name  reported.result
 1  Cc1ccc(-c2ncccc2CNS(=O)(=O)c2ccc(Cl)cc2)cc1  RP-LC retention time              766
 2  CC(=O)N1CCC(CC(=O)N2CCc3nn(CC4CC4)c(=O)n3CC2)CC1  RP-LC retention time              596
 3  CSc1ccc(CNC(=O)c2cc3c(=O)n(Cc4ccccc4)ccc3nc2C)cc1  RP-LC retention time              870
 4  Cc1nc2ccccc2c(=O)n1-c1ccc(NC(=O)c2cnccn2)cc1  RP-LC retention time              682
 5  CCn1c(C(=O)NCCCN2CCOCC2)cc2c(-c3cccs3)nn(-c3ccccc3)c21  RP-LC retention time              705
 6  Cc1nc2ccccc2c(=O)n1Cc1noc(-c2ccc(C(F)(F)F)cc2)n1  RP-LC retention time              987
 7  Cc1cccc(N2CCN(C(=O)c3ccc(-c4csc(C5CC5)n4)cc3)CC2C)c1 (stereo not given)  RP-LC retention time             1120
 8  CCN(CCN(C)C)c1ccc(C(=O)O)cc1NS(=O)(=O)c1ccccc1  RP-LC retention time              610
 9  CC1CCN(S(=O)(=O)c2ccc3c(c2)CCCC(=O)N3CC(=O)N2CCN(C)CC2)CC1  RP-LC retention time              656
10  O=C(Nc1ccc(N2CCOCC2)cc1)C1=CCN(Cc2ccc(F)cc2)CC1  RP-LC retention time              603
11     Cc1ccc(C)c(NC(=O)Cn2c(N)nc(C)cc2=O)c1  RP-LC retention time              596
12              c1cc(CN2CCCCC2)ccc1CC1CCNCC1  RP-LC retention time              528
13  Cc1ccc(Nc2c(-c3ccccc3)nc3ccc(Br)cn23)cc1  RP-LC retention time              881
14  Cn1cc(CCN2CCC(C(=O)NCC3CCCCC3)CC2)c2cccnc21  RP-LC retention time              619
15  COC(=O)c1ccc2c(=O)n(-c3cccc(Cl)c3)c(N3CCCC3)nc2c1  RP-LC retention time             1040
16  CC1(C(=O)NCc2ccccc2)CCCN(C(=O)Nc2ccccc2C(F)(F)F)C1 (stereo not given)  RP-LC retention time              958
17  COc1ccc2c(c1)C1(CCN(S(=O)(=O)c3cccs3)C1)C(=O)N2 (stereo not given)  RP-LC retention time              790
18  O=C(NCc1ccc(F)cc1F)c1c(O)c2cccnc2n(-c2ccccc2)c1=O  RP-LC retention time             1200
19  O=C(NC(Cc1ccccc1)c1nc2ccccc2[nH]1)c1cccs1 (stereo not given)  RP-LC retention time              607
20   Cc1cc2c(=O)n(CC(=O)NCc3ccc(F)cc3)ccc2s1  RP-LC retention time              751
